# Tested on: Saccharomyces cerevisiae
# experiment_summary: protein stability index of tFT-peptide fusion (C-terminal peptide) (PSI (0-1 scale)); higher = more stable (slower turnover)
# test_conditions: genetic background: das1 deletion; temperature: 37 C
The threshold is inclusive: protein stability index of exactly 0.5 counts as 1; values below receive 0.

- sequence_string: "WFYLLFVLFGLV"
  experimental_target: "Saccharomyces cerevisiae"
  qualitative_label: 1
- sequence_string: "PDKRNHLIKLLN"
  experimental_target: "Saccharomyces cerevisiae"
  qualitative_label: 1
- sequence_string: "LWYVQILNIVLN"
  experimental_target: "Saccharomyces cerevisiae"
  qualitative_label: 0
- sequence_string: "PLYFSVFSLLFL"
  experimental_target: "Saccharomyces cerevisiae"
  qualitative_label: 1
- sequence_string: "GIGVVWLDVFKT"
  experimental_target: "Saccharomyces cerevisiae"
  qualitative_label: 1
- sequence_string: "FVEFCFWCFWVV"
  experimental_target: "Saccharomyces cerevisiae"
  qualitative_label: 1
- sequence_string: "GGRFVWIVRAVG"
  experimental_target: "Saccharomyces cerevisiae"
  qualitative_label: 1
- sequence_string: "GTHWARLGWLLA"
  experimental_target: "Saccharomyces cerevisiae"
  qualitative_label: 1
- sequence_string: "LTIYPLTYCFVS"
  experimental_target: "Saccharomyces cerevisiae"
  qualitative_label: 1
- sequence_string: "KQSGLQIKRRKL"
  experimental_target: "Saccharomyces cerevisiae"
  qualitative_label: 1
- sequence_string: "MSCILFCCLVPF"
  experimental_target: "Saccharomyces cerevisiae"
  qualitative_label: 1
- sequence_string: "PAVRRLTGLMLM"
  experimental_target: "Saccharomyces cerevisiae"
  qualitative_label: 1
- sequence_string: "FDWLFFFVNFVV"
  experimental_target: "Saccharomyces cerevisiae"
  qualitative_label: 1
- sequence_string: "YLLTAFLSAFNP"
  experimental_target: "Saccharomyces cerevisiae"
  qualitative_label: 1
- sequence_string: "LDRLTTWTLIVR"
  experimental_target: "Saccharomyces cerevisiae"
  qualitative_label: 1
- sequence_string: "LFFWWVAVVFRV"
  experimental_target: "Saccharomyces cerevisiae"
  qualitative_label: 0
- sequence_string: "WYAGIVFTRVWM"
  experimental_target: "Saccharomyces cerevisiae"
  qualitative_label: 1
- sequence_string: "VRYCFFWVRAVV"
  experimental_target: "Saccharomyces cerevisiae"
  qualitative_label: 0
- sequence_string: "VIVIQGFVFVLG"
  experimental_target: "Saccharomyces cerevisiae"
  qualitative_label: 0
- sequence_string: "RPRVAGLMTLVS"
  experimental_target: "Saccharomyces cerevisiae"
  qualitative_label: 1
- sequence_string: "VFGVWVVVGCVG"
  experimental_target: "Saccharomyces cerevisiae"
  qualitative_label: 0
- sequence_string: "RERRISRIPCLS"
  experimental_target: "Saccharomyces cerevisiae"
  qualitative_label: 1
- sequence_string: "FCCLVLDLEVSG"
  experimental_target: "Saccharomyces cerevisiae"
  qualitative_label: 1
- sequence_string: "SFLACFVLAFFC"
  experimental_target: "Saccharomyces cerevisiae"
  qualitative_label: 0
- sequence_string: "LFRRMWVEIFYV"
  experimental_target: "Saccharomyces cerevisiae"
  qualitative_label: 1
- sequence_string: "APRPSYSLLALL"
  experimental_target: "Saccharomyces cerevisiae"
  qualitative_label: 1
- sequence_string: "FWVNFLFVLFIL"
  experimental_target: "Saccharomyces cerevisiae"
  qualitative_label: 0
- sequence_string: "GSLHVISVVGML"
  experimental_target: "Saccharomyces cerevisiae"
  qualitative_label: 1
- sequence_string: "GGVSPRSSMDLL"
  experimental_target: "Saccharomyces cerevisiae"
  qualitative_label: 1
- sequence_string: "PPPLPPPSPSRP"
  experimental_target: "Saccharomyces cerevisiae"
  qualitative_label: 1
- sequence_string: "KLMGWFVGVVAR"
  experimental_target: "Saccharomyces cerevisiae"
  qualitative_label: 1
- sequence_string: "RFIYYCVDVFFS"
  experimental_target: "Saccharomyces cerevisiae"
  qualitative_label: 0
- sequence_string: "VVFRCSSFFCLV"
  experimental_target: "Saccharomyces cerevisiae"
  qualitative_label: 1
- sequence_string: "CSPSCNIVRLVS"
  experimental_target: "Saccharomyces cerevisiae"
  qualitative_label: 1
- sequence_string: "FVLLCVLEFVAG"
  experimental_target: "Saccharomyces cerevisiae"
  qualitative_label: 0
- sequence_string: "RFRFRRTCLYAT"
  experimental_target: "Saccharomyces cerevisiae"
  qualitative_label: 1
- sequence_string: "LSFFFWFIFSLC"
  experimental_target: "Saccharomyces cerevisiae"
  qualitative_label: 1

###

# System: Saccharomyces cerevisiae
# experiment_summary: protein stability index of tFT-peptide fusion in wild type (PSI (0-1 scale)); higher = more stable (slower turnover)
# test_conditions: genetic background: wild type
Kindly return Condition met if reported protein stability index is no lower than 0.2; return Condition not met if it is lower.

- sequence_string: "KKHKKGQKQKMN"
  qualitative_label: "Condition not met"
- sequence_string: "CLVSHPILLFFR"
  qualitative_label: "Condition not met"
- sequence_string: "GLYMCSAGCWFR"
  qualitative_label: "Condition met"
- sequence_string: "RLIQQLPVQFLN"
  qualitative_label: "Condition not met"
- sequence_string: "KKHKKGQKQKINL"
  qualitative_label: "Condition met"
- sequence_string: "LVVYLSCVDCIN"
  qualitative_label: "Condition met"
- sequence_string: "PDLRNHLIKLLN"
  qualitative_label: "Condition not met"
- sequence_string: "AITLPMCPLLLRF"
  qualitative_label: "Condition not met"

###

# System: Saccharomyces cerevisiae
# experiment_summary: protein stability index of tFT-peptide fusion (C-terminal peptide) (PSI (0-1 scale)); higher = more stable (slower turnover)
# test_conditions: genetic background: wild type; temperature: 30 C

- sequence_string: "TRREQYSSSNLV"
  protein stability index: 0.674
- sequence_string: "CLPRFLGLGGRV"
  protein stability index: 0.68
- sequence_string: "GGVSPRSSMDLL"
  protein stability index: 0.434
- sequence_string: "WVGLGMSLRRAA"
  protein stability index: 0.564
- sequence_string: "DLTITFYKSGQL"
  protein stability index: 0.715
- sequence_string: "IGGLAGFGSALT"
  protein stability index: 0.759
- sequence_string: "ARLSLEGASRGE"
  protein stability index: 0.653
- sequence_string: "AGRRGVNGGGWG"
  protein stability index: 0.686
- sequence_string: "SRGRTRLVAPIV"
  protein stability index: 0.66
- sequence_string: "GKGGAEHADQVL"
  protein stability index: 0.669
- sequence_string: "WCLLGVPVRVVV"
  protein stability index: 0.425
- sequence_string: "NSESVRLGLGNE"
  protein stability index: 0.705
- sequence_string: "TCTGAKHRCHVL"
  protein stability index: 0.677
- sequence_string: "KRNSLSLIPQII"
  protein stability index: 0.655
- sequence_string: "KIVCTLGPAFAR"
  protein stability index: 0.672
- sequence_string: "DGCRCQSMSKIS"
  protein stability index: 0.553
- sequence_string: "LPPPPLTLPPPP"
  protein stability index: 0.694
- sequence_string: "VHENVGSGYNLE"
  protein stability index: 0.734
- sequence_string: "GGRGGGGEMGGR"
  protein stability index: 0.651

###

# Test system: Saccharomyces cerevisiae
# experiment_summary: protein stability index of tFT-peptide fusion (C-terminal peptide) (PSI (0-1 scale)); higher = more stable (slower turnover)
# test_conditions: genetic background: wild type; temperature: 30 C
Label criterion met when protein stability index >= 0.7; otherwise criterion not met.

- sequence_string: "VLVGWWGLGGGV"
  qualitative_label: "criterion not met"
- sequence_string: "DEFCSHSLAGSS"
  qualitative_label: "criterion not met"
- sequence_string: "KKLRNKKGKRYA"
  qualitative_label: "criterion not met"
- sequence_string: "SPAPPSQFPSFA"
  qualitative_label: "criterion met"
- sequence_string: "LPPSSLPLPCLL"
  qualitative_label: "criterion met"
- sequence_string: "ASCLNYSSNRRP"
  qualitative_label: "criterion not met"
- sequence_string: "SFIFTLRRSRPR"
  qualitative_label: "criterion not met"
- sequence_string: "PFLRPPSPPSSP"
  qualitative_label: "criterion not met"
- sequence_string: "TVVSFMFCPSLT"
  qualitative_label: "criterion not met"
- sequence_string: "PSPTRLPPPSPH"
  qualitative_label: "criterion met"
- sequence_string: "GVNDRLIKMSCA"
  qualitative_label: "criterion not met"
- sequence_string: "RFRDSGRWLSAE"
  qualitative_label: "criterion met"
- sequence_string: "YAFLWCVFYLSF"
  qualitative_label: "criterion not met"
- sequence_string: "KAAQREVDLLVT"
  qualitative_label: "criterion not met"
- sequence_string: "SALNKPLTTESG"
  qualitative_label: "criterion not met"
- sequence_string: "ELVGGEGIGGGL"
  qualitative_label: "criterion not met"
- sequence_string: "KKKTKYSKDKLC"
  qualitative_label: "criterion not met"
- sequence_string: "NVIGSGLFVGWD"
  qualitative_label: "criterion met"
- sequence_string: "ERINFSRRDFDC"
  qualitative_label: "criterion met"
- sequence_string: "SLSGSPIPFIRL"
  qualitative_label: "criterion met"
- sequence_string: "FILLFGFSHWVW"
  qualitative_label: "criterion not met"
- sequence_string: "GSGRSGSRFLPV"
  qualitative_label: "criterion not met"
- sequence_string: "SVNGTGGGVVDL"
  qualitative_label: "criterion not met"
- sequence_string: "KKNKAKRKKYIV"
  qualitative_label: "criterion not met"
- sequence_string: "KSKKNKTEKTKE"
  qualitative_label: "criterion not met"
- sequence_string: "CFMGCAKRVTLI"
  qualitative_label: "criterion not met"
- sequence_string: "WFLVLLFFWFLL"
  qualitative_label: "criterion not met"
- sequence_string: "LLPRSSPTPLAH"
  qualitative_label: "criterion met"
- sequence_string: "QEHLSFVATARY"
  qualitative_label: "criterion met"
- sequence_string: "EWCGSLVVWTGG"
  qualitative_label: "criterion not met"
- sequence_string: "PPPSPAPCPPSS"
  qualitative_label: "criterion met"
- sequence_string: "SQVRYIANRKDG"
  qualitative_label: "criterion not met"
- sequence_string: "SREEWQSSKLRD"
  qualitative_label: "criterion met"
- sequence_string: "VFCFCRFHFFCA"
  qualitative_label: "criterion not met"
- sequence_string: "LLTSCLLSCCFR"
  qualitative_label: "criterion not met"
- sequence_string: "LLLFLHSTLTCR"
  qualitative_label: "criterion not met"
- sequence_string: "PLLVVPVPRALY"
  qualitative_label: "criterion not met"
- sequence_string: "RVEITGVAVTRC"
  qualitative_label: "criterion not met"
- sequence_string: "PPPLCLHAPFPP"
  qualitative_label: "criterion not met"
- sequence_string: "ESGTVINKNSNK"
  qualitative_label: "criterion not met"
- sequence_string: "GWGMVLYRNMML"
  qualitative_label: "criterion not met"
- sequence_string: "FGLARGMFFLTV"
  qualitative_label: "criterion not met"
- sequence_string: "ECGRWLGRGVRG"
  qualitative_label: "criterion met"
- sequence_string: "GYLVFTLRWLRG"
  qualitative_label: "criterion not met"
- sequence_string: "MFRSEVSWKLCC"
  qualitative_label: "criterion not met"
- sequence_string: "GFDVGKRGRFGL"
  qualitative_label: "criterion not met"
- sequence_string: "VPPPPPCTIPFP"
  qualitative_label: "criterion not met"
- sequence_string: "CLVGSLTDIAWL"
  qualitative_label: "criterion met"
- sequence_string: "RHGDRLEHPIPV"
  qualitative_label: "criterion not met"
- sequence_string: "YWPPIRSILPQY"
  qualitative_label: "criterion not met"
- sequence_string: "GMPTANMYLLLQ"
  qualitative_label: "criterion not met"
- sequence_string: "FGRFVLSCFDRK"
  qualitative_label: "criterion not met"
- sequence_string: "SVVGEKAALMGV"
  qualitative_label: "criterion not met"
- sequence_string: "GVCVLGGWSGFW"
  qualitative_label: "criterion met"
- sequence_string: "ERGRKGGAGARD"
  qualitative_label: "criterion not met"
- sequence_string: "SCYGPRAPFHSP"
  qualitative_label: "criterion not met"
- sequence_string: "RRRGEGRREKDR"
  qualitative_label: "criterion not met"
